MEASURED TARGET: alpha 1 adrenergic receptors
PROTOCOL: affinity for alpha 1 adrenergic receptors, receptor binding test
STATED CONDITIONS: receptor binding
METRIC: IC50
Write down the value, and be sure its unit follows.

Some entries whose results are on file:
1. C[C@H]1CN(c2cccc(Cl)c2)CCN1CCCn1nc2ccccn2c1=O [(S)] | 981 nM
2. C[C@@H]1CN(c2cccc(Cl)c2)CCN1CCCn1nc2ccccn2c1=O [(R)] | 533 nM

IC50 for CC1CN(c2cccc(Cl)c2)CCN1CCCn1nc2ccccn2c1=O (racemic) [Racemate, reference compound] ?
471 nM
